Values compiled from ChEMBL document CHEMBL1127577.

target: UniProt:P12931
Outcome Measure: log10(IC50) (log10 of the value in nM)
Heads up, the numbers here are log10 of IC50 in nM units.

Cc1cccc(Cn2c3cc(O)c(O)cc3c3ccc(O)c(O)c32)c1: 3.23

Task: Query (molecule): `Oc1cc2c3ccc(O)c(O)c3n(Cc3c(Cl)cccc3Cl)c2cc1O` ; field requested: log10(IC50)
Output: 2.95

Task: Quick one: log10(IC50) for `O=c1c2cc(O)c(O)cc2c2cc(O)c(O)cc2n1Cc1ccc([N+](=O)[O-])cc1` ?
Output: 2.95

Task: Quick one: log10(IC50) of `O=C(CCc1ccccc1)n1c2cc(O)c(O)cc2c2ccc(O)c(O)c21` ?
Output: 2.60

Task: Consider the molecule `CS(=O)(=O)c1ccc(C(=O)n2c3cc(O)c(O)cc3c3ccc(O)c(O)c32)cc1` and give its measured log10(IC50).
Output: 2.60

Task: I'd like to know its log10(IC50). The molecule in question is `Oc1cc2c3cc(O)c(O)cc3n(Cc3ccccc3)c2cc1O`
Output: 3.85

Task: Reported log10(IC50) for `N#Cc1ccc(Cn2c3cc(O)c(O)cc3c3ccc(O)c(O)c32)cc1` : what is it?
Output: 2.60

====

Recorded measurements of IC50, one per entry
biological target: cAMP-dependent protein kinase (PKA) (Homo sapiens, UniProt P22694+P17612+P22612); test: In vitro inhibitory activity against protein kinase A; type: protein assay, unidentified
Report only the number, with the unit µM understood.

These solved cases illustrate the format of a correct answer.
O=C(c1ccc2ccccc2c1)n1c2cc(O)c(O)cc2c2ccc(O)c(O)c21: 1
O=c1c2c(O)c(O)ccc2c2cc(O)c(O)cc2n1Cc1ccc([N+](=O)[O-])cc1: 309
CS(=O)(=O)c1ccc(C(=O)n2c3cc(O)c(O)cc3c3ccc(O)c(O)c32)cc1: 40
CS(=O)(=O)c1ccc(C(=O)n2c3cc(O)c(O)cc3c3c(Br)cc(O)c(O)c32)cc1: 4
O=C(CCc1ccccc1)n1c2cc(O)c(O)cc2c2ccc(O)c(O)c21: 2.3

Task: Test system cAMP-dependent protein kinase (PKA) (Homo sapiens, UniProt P22694+P17612+P22612); read-out IC50; what value for `Oc1cc2c3cc(O)c(O)cc3n(Cc3ccccc3)c2cc1O` ?
Output: 115

Task: Form field - read-out: IC50; system: cAMP-dependent protein kinase (PKA) (Homo sapiens, UniProt P22694+P17612+P22612); submitted item: `O=c1c2cc(O)c(O)cc2c2cc(O)c(O)cc2n1Cc1ccc([N+](=O)[O-])cc1`
Output: 8.4

Task: Reported IC50 for cAMP-dependent protein kinase (PKA) (Homo sapiens, UniProt P22694+P17612+P22612), given `O=C(c1ccccc1)n1c2cc(O)c(O)cc2c2ccc(O)c(O)c21` ?
Output: 240

Task: Fill in the recorded IC50 for this compound, with cAMP-dependent protein kinase (PKA) (Homo sapiens, UniProt P22694+P17612+P22612) as test system: `Oc1cc2c3cc(O)c(O)cc3n(Cc3cccnc3)c2cc1O`
Output: 108

Task: Entry `O=C(c1ccc(C(F)(F)F)cc1)n1c2cc(O)c(O)cc2c2c(Br)cc(O)c(O)c21` , system cAMP-dependent protein kinase (PKA) (Homo sapiens, UniProt P22694+P17612+P22612): what IC50 was measured?
Output: 7

Task: Give IC50 (cAMP-dependent protein kinase (PKA) (Homo sapiens, UniProt P22694+P17612+P22612)) of the following compound: `O=C(c1cccc([N+](=O)[O-])c1)n1c2cc(O)c(O)cc2c2ccc(O)c(O)c21`
Output: 1.5

====

target: Proto-oncogene tyrosine-protein kinase Src (Homo sapiens)
pIC50: −log10 of the molar value.
We use 6 as the dividing line for pIC50: on or above the line is yes, below is no.

O=S(=O)(c1ccccc1)c1ccc(Cn2c3cc(O)c(O)cc3c3ccc(O)c(O)c32)cc1: yes
O=c1c2c(O)c(O)ccc2c2cc(O)c(O)cc2n1Cc1ccccc1: no

Now examine the next entry.
Task: Tell me whether pIC50 is at least 6 here: `O=c1c2c(O)c(O)ccc2c2cc(O)c(O)cc2n1Cc1ccc([N+](=O)[O-])cc1`
Output: no

====

target: Proto-oncogene tyrosine-protein kinase Src (Homo sapiens, UniProt P12931)
Sequence (P12931 2-536 limits assumed): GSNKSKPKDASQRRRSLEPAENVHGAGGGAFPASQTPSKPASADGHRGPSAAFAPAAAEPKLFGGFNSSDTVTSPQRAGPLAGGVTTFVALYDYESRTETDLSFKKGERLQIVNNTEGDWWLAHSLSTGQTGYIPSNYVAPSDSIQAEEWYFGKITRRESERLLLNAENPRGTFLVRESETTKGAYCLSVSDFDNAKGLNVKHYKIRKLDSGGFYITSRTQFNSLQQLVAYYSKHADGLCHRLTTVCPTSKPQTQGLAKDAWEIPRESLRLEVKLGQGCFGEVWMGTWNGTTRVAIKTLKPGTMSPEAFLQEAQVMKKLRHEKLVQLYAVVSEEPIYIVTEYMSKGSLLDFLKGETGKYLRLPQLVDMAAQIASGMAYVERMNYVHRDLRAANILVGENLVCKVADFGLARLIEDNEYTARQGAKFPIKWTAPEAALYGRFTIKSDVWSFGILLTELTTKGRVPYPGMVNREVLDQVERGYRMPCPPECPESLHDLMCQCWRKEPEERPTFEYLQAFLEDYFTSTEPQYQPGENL
Outcome Measure: pIC50
// scale note: pIC50 = -log10(conc_M); give the bare number

O=C(c1ccc2ccccc2c1)n1c2cc(O)c(O)cc2c2ccc(O)c(O)c21: 6.30

Task: Form field - read-out: pIC50; system: Proto-oncogene tyrosine-protein kinase Src (Homo sapiens, UniProt P12931); submitted item: `Oc1cc2c3cc(O)c(O)cc3n(Cc3cccnc3)c2cc1O`
Output: 5.10

Task: Provide the documented pIC50 with Proto-oncogene tyrosine-protein kinase Src (Homo sapiens, UniProt P12931) as the system for `O=c1c2cc(O)c(O)cc2c2cc(O)c(O)cc2n1Cc1ccc(S(=O)(=O)c2ccccc2)cc1`
Output: 5.70

====

target: cAMP-dependent protein kinase (PKA) (Homo sapiens, UniProt P22694+P17612+P22612); experiment: In vitro inhibitory activity against protein kinase A; type: protein assay, unidentified
Outcome Measure: IC50 (µM)
# number only, unit µM dropped from output

// below: answered compounds
O=S(=O)(c1ccccc1)c1ccc(Cn2c3cc(O)c(O)cc3c3ccc(O)c(O)c32)cc1: 317
O=S(=O)(Cc1ccccc1)n1c2cc(O)c(O)cc2c2ccc(O)c(O)c21: 78
Oc1cc2c3ccc(O)c(O)c3n(Cc3c(Cl)cccc3Cl)c2cc1O: 435
CCn1c(=O)c2c(O)c(O)ccc2c2cc(O)c(O)cc21: 541
O=c1c2cc(O)c(O)cc2c2cc(O)c(O)cc2n1Cc1ccc(Cl)c(Cl)c1: 20
Oc1cc2c3ccc(O)c(O)c3n(Cc3ccc(C(F)(F)F)cc3)c2cc1O: 50
O=c1c2c(O)c(O)ccc2c2cc(O)c(O)cc2n1Cc1ccccc1: 284
Cc1cccc(Cn2c3cc(O)c(O)cc3c3ccc(O)c(O)c32)c1: 23

Kindly consider the entry below.
Task: Looking for the measured IC50 of `O=C(c1ccccc1)n1c2cc(O)c(O)cc2c2cc(O)c(O)cc21` , can you help?
Output: 415

====

target: Proto-oncogene tyrosine-protein kinase Src (Homo sapiens, UniProt P12931); assay: Tested for in vitro inhibitory activity against tyrosine protein kinase pp60 c-src
pIC50 reference
Kindly note that pIC50 refers to -log10 of the concentration in mol/L and answer with the value alone.

Task: Item under review: `Oc1cc2nc(O)c3cc(O)c(O)cc3c2cc1O` . Reported pIC50?
Output: 6.00

Task: Given the molecule `O=C(c1cccc([N+](=O)[O-])c1)n1c2cc(O)c(O)cc2c2ccc(O)c(O)c21` , what is its reported pIC50?
Output: 6.22

Task: What value of measured pIC50 is listed for `O=C(c1ccccc1)n1c2cc(O)c(O)cc2c2ccc(O)c(O)c21` ?
Output: 6.05

====

target: cAMP-dependent protein kinase (PKA) (Homo sapiens, UniProt P22694+P17612+P22612); assay: In vitro inhibitory activity against protein kinase A; assay type: protein assay, unidentified
Would you mind classing the entries by IC50? Ranges: lowest (below 40 µM), middle (40 µM to below 300 µM), highest (300 µM or more)

Some solved cases for reference:
Oc1cc2c3ccc(O)c(O)c3n(Cc3ccc(Br)cc3)c2cc1O: highest
O=C(c1ccc(-c2ccccc2)cc1)n1c2cc(O)c(O)cc2c2ccc(O)c(O)c21: lowest
CC(C)(C)c1ccc(C(=O)n2c3cc(O)c(O)cc3c3ccc(O)c(O)c32)cc1: middle
Oc1cc2[nH]c3c(O)c(O)ccc3c2cc1O: middle
Oc1cc2[nH]c3cc(O)c(O)cc3c2cc1O: middle
CCn1c(=O)c2cc(O)c(O)cc2c2cc(O)c(O)cc21: highest
O=S(=O)(c1ccccc1)n1c2cc(O)c(O)cc2c2ccc(O)c(O)c21: middle
O=c1c2cc(O)c(O)cc2c2cc(O)c(O)cc2n1Cc1ccccc1: highest
O=C(c1ccc(Br)cc1)n1c2cc(O)c(O)cc2c2ccc(O)c(O)c21: lowest
Oc1cc2[nH]c3c(O)c(O)cc(Br)c3c2cc1O: lowest

Task: Hello team, could you let me know which band the following compound falls into: `O=S(=O)(c1ccccc1)n1c2cc(O)c(O)cc2c2cc(O)c(O)cc21`
Output: highest

Task: Kindly identify the class of `O=c1c2c(O)c(O)ccc2c2cc(O)c(O)cc2n1Cc1ccc(S(=O)(=O)c2ccccc2)cc1` .
Output: highest

Task: Each compound maps to one class by IC50. Which class for `N#Cc1ccc(Cn2c3cc(O)c(O)cc3c3ccc(O)c(O)c32)cc1` ?
Output: middle
